assay: Minimum inhibitory concentration (MIC) of antimicrobials / essential oils; format: cell-based; settings: Table I, preferred essential oils; test organism not given; read-out: MIC (ppm)
# if measured MIC < 100 µg/mL: MET  # else: NOT MET

[
  {
    "molecule": "CC(=O)C(=O)c1ccccc1",
    "assigned-class": "NOT MET"
  },
  {
    "molecule": "CC=CC=CC=O",
    "assigned-class": "MET"
  },
  {
    "molecule": "COC(=O)c1ccccc1O [Methyl salicylate]",
    "assigned-class": "NOT MET"
  },
  {
    "molecule": "COc1ccccc1C=CC=O",
    "assigned-class": "NOT MET"
  },
  {
    "molecule": "CC(C)(C)C1CCC(=O)CC1",
    "assigned-class": "NOT MET"
  }
]
